Reported IC50 on RAC-alpha serine/threonine-protein kinase (Homo sapiens, UniProt P31749) for assorted molecules, compiled from publications.
So basically, if IC50 comes in under 20 nM it's Criterion met, and if it's 20 nM or more it's Criterion not met.

Consider the molecule `COc1cc2ncc3c(N)nc(-c4cncc(O[C@H]5CCNC5)c4)cc3c2cc1OC` . Is its IC50 strictly less than 20 nM?
Criterion not met

Consider the molecule `C[C@H](NC(=O)C1(N)CCN(c2ncnc3[nH]ccc23)CC1)c1ccc(C#N)cc1` . Is its IC50 strictly less than 20 nM?
Criterion not met

Consider the molecule Cn1ncc(Cl)c1-c1coc(C(=O)N[C@H]2CNCC[C@@H]2c2ccc(Cl)cc2)c1 (racemic) . Is its IC50 strictly less than 20 nM?
Criterion not met

Consider the molecule `Cn1ncc(Cl)c1-c1cnc(C(=O)N[C@@H]2CNCC[C@H]2c2cccc(F)c2)cc1Cl` . Is its IC50 strictly less than 20 nM?
Criterion met

Consider the molecule Cn1ncc(Cl)c1-c1cc(C(=O)N[C@@H]2CNC(CC(O)CO)C[C@H]2c2ccc(Cl)c(Cl)c2)oc1Cl (stereo partly drawn) . Is its IC50 strictly less than 20 nM?
Criterion met

Consider the molecule `CC1(C)C(=O)Nc2ncnc(N3CCC(c4nc(-c5nnc(C(F)F)o5)ccc4NCCN4CCCC4)CC3)c21` . Is its IC50 strictly less than 20 nM?
Criterion met

Consider the molecule `COc1cc2ncc3c(N)nc(-c4cncc(OC[C@H](N)CN5Cc6ccccc6C5)c4)cc3c2cc1OC` . Is its IC50 strictly less than 20 nM?
Criterion not met

Consider the molecule `NC1(c2ccc(-c3nc4n(c3-c3ccsc3)COc3ccccc3-4)cc2)CCC1` . Is its IC50 strictly less than 20 nM?
Criterion not met

Consider the molecule NC[C@H](Cc1cccc(F)c1)NC(=O)c1cc2c(s1)C(O)CCn1ncc(Cl)c1-2 (stereo partly drawn) . Is its IC50 strictly less than 20 nM?
Criterion not met

Consider the molecule `NC(=O)c1cccc2c(N[C@H](CN3CCC3)c3ccc(Cl)cc3)ncnc12` . Is its IC50 strictly less than 20 nM?
Criterion not met

Consider the molecule `CC(C)NC[C@@H](C(=O)N1CC2CCC(C1)N2c1ncnc2c1N(C)CC(=O)N2)c1ccc(Cl)cc1` . Is its IC50 strictly less than 20 nM?
Criterion not met

Consider the molecule CN(C)C(=O)c1ccc2c(c1)-c1nc(-c3ccc(C4(N)CC(C)(O)C4)cc3)c(-c3ccccc3)n1CO2 (stereo not drawn) . Is its IC50 strictly less than 20 nM?
Criterion met

Consider the molecule `COCCOc1cc2ncc3c(N)nc(-c4cncc(OC[C@@H](N)Cc5ccccc5)c4)cc3c2cc1OC` . Is its IC50 strictly less than 20 nM?
Criterion met

Consider the molecule `Cn1ncc(CO)c1-c1ccc(C(=O)N[C@@H]2CNCC[C@H]2c2cccc(F)c2)s1` . Is its IC50 strictly less than 20 nM?
Criterion met

Consider the molecule Cc1c(C(=O)N[C@H]2CNCC[C@@H]2C2CCCC(Cl)C2)sc(Cl)c1-c1ncnn1C (stereo partly drawn) . Is its IC50 strictly less than 20 nM?
Criterion met

Consider the molecule `Cn1nccc1-c1ccc(C(=O)N[C@@H]2CNCC[C@H]2c2ccc(F)c(F)c2)cc1` . Is its IC50 strictly less than 20 nM?
Criterion met

Consider the molecule `COc1cc2ncc3c(N)nc(-c4cncc(OC[C@@H](N)Cc5ccc(O)cc5)c4)cc3c2cc1OC` . Is its IC50 strictly less than 20 nM?
Criterion met

###

Reported pIC50 on RAC-alpha serine/threonine-protein kinase (Homo sapiens) for assorted compounds, compiled from publications.
Please express pIC50 as -log10 of the molar concentration.

Value wanted: pIC50 (RAC-alpha serine/threonine-protein kinase (Homo sapiens)) of entry `COc1cccc([C@@H](CN2CCC2)Nc2ncnc3c(C(N)=O)cccc23)c1`
6.60

Value wanted: pIC50 (RAC-alpha serine/threonine-protein kinase (Homo sapiens)) of entry Cc1cnn(C)c1-c1cnc(C(=O)N[C@H]2CNC[C@@H]2c2ccc(C(F)(F)F)cc2)cc1F (racemic)
6.94

Value wanted: pIC50 (RAC-alpha serine/threonine-protein kinase (Homo sapiens)) of entry `O=C(Nc1cccc(Nc2ncnc3[nH]cc(C(=O)c4ccccc4)c23)c1)c1ccc(Cl)cc1`
5.29

###

Reported IC50 on RAC-alpha serine/threonine-protein kinase (Homo sapiens) for assorted molecules, compiled from publications.

Value wanted: IC50 (RAC-alpha serine/threonine-protein kinase (Homo sapiens)) of entry `NC[C@H](Cc1ccccc1)NC(=O)c1cc2c(n1CC(F)(F)F)-c1ccncc1CC2`
< 500 nM

Value wanted: IC50 (RAC-alpha serine/threonine-protein kinase (Homo sapiens)) of entry `NC1(c2ccc(-c3nc4c(cc3-c3ccccc3)N(CCF)C(=O)CO4)cc2)CCC1`
100 to 1000 nM

Value wanted: IC50 (RAC-alpha serine/threonine-protein kinase (Homo sapiens)) of entry `CC(CO)(CO)CN1C(=O)COc2nc(-c3ccc(C4(N)CCC4)cc3)c(-c3ccccc3)cc21`
100 to 1000 nM

Value wanted: IC50 (RAC-alpha serine/threonine-protein kinase (Homo sapiens)) of entry CC12CCc3nc(-c4ccc(C5(N)CCC5)cc4)c(-c4ccccc4)cc3C1=NNC2=O (stereo not drawn)
100 to 1000 nM

Value wanted: IC50 (RAC-alpha serine/threonine-protein kinase (Homo sapiens)) of entry `NC1(c2ccc(-c3nc4c(cc3-c3ccccc3)N(Cc3cccnc3)C(=O)CO4)cc2)CCC1`
100 to 1000 nM

Value wanted: IC50 (RAC-alpha serine/threonine-protein kinase (Homo sapiens)) of entry `Nc1c(N2CCN(C3CCCCC3)CC2)cc(Nc2ccc(C(=O)O)cc2)c2c1C(=O)c1ccccc1C2=O`
> 10000 nM

###

Reported IC50 on RAC-alpha serine/threonine-protein kinase (Homo sapiens) for assorted molecules, compiled from publications.

Could you share which IC50 value was measured for `NC1(c2ccc(-c3nc4c(cc3-c3ccccc3)-n3c(nnc3C3CC3)CO4)cc2)CCC1` ?
100 to 1000 nM

Could you share which IC50 value was measured for `NC[C@H](Cc1ccccc1)NC(=O)c1cn(CCO)c2c1CCc1cnccc1-2` ?
< 500 nM

Could you share which IC50 value was measured for `NC1(c2ccc(-c3nc4c(cc3-c3ccccc3)C(=O)COC4)cc2)CCC1` ?
1000 to 10000 nM

Could you share which IC50 value was measured for `CNC(=O)c1ccc2c(c1)OCn1c-2nc(-c2ccc([C@]3(N)C[C@](C)(O)C3)cc2)c1-c1ccccc1` ?
1.8 nM

Could you share which IC50 value was measured for `COc1cc2c(cc1OCC1CCN(C)CC1)ncc1c(N)nc(-c3cnccn3)cc12` ?
250 nM

Could you share which IC50 value was measured for `NC(=O)c1cccc2c(N[C@H](CN3CCC3)c3ccc(F)cc3)ncnc12` ?
23 nM

Could you share which IC50 value was measured for `NC(=O)c1cccc2c(N[C@H](CN3CCC3)c3cccc(Br)c3)ncnc12` ?
5 nM

Could you share which IC50 value was measured for Cn1ncc(Cl)c1-c1cc(C(=O)N[C@@H]2CNC(CC(N)=O)C[C@H]2c2ccc(Cl)c(Cl)c2)oc1Cl (some centres unmarked) ?
3 nM

###

Reported log10 IC50 on RAC-alpha serine/threonine-protein kinase (Homo sapiens) for assorted molecules, compiled from publications.
Please be aware that the numbers have been log10-transformed from IC50 in nM.

Could you share which log10 IC50 value was measured for NCC(CCc1ccccc1)NC(=O)c1cc2c(s1)CCCn1ncc(Cl)c1-2 (stereo not shown) ?
1.56

Could you share which log10 IC50 value was measured for `Cc1ncsc1-c1ccc([C@H](C)NC(=O)[C@@H]2C[C@@H](O)CN2C(=O)[C@@H](NC(=O)CCOCCOCCNC[C@@H](C(=O)N2CCN(c3ncnc4c3[C@H](C)C[C@H]4O)CC2)c2ccc(Cl)cc2)C(C)(C)C)cc1` ?
0.58

Could you share which log10 IC50 value was measured for `Cn1ncc(Br)c1-c1ccc(C(=O)N[C@@H]2CNCC[C@H]2c2ccc(Cl)cc2)cc1` ?
0.78

Could you share which log10 IC50 value was measured for `NC[C@H](Cc1cccc(F)c1)NC(=O)c1cc2c(s1)CCCn1ncc(Br)c1-2` ?
-0.48

Could you share which log10 IC50 value was measured for CC1C(=O)Nc2ncnc(N3CCC(c4nc(-c5cc(C(F)(F)F)nn5C)ccc4NCCN4CCCC4)CC3)c21 (stereo not shown) ?
-0.22

Could you share which log10 IC50 value was measured for CCCc1cc(C(=O)N[C@H]2CNCC[C@@H]2c2cc(OC)cc(OC)c2)ccc1-c1c(Br)cnn1C (racemic) ?
2.83

###

Reported log10(IC50) on RAC-alpha serine/threonine-protein kinase (Homo sapiens) for assorted molecules, compiled from publications.
Please be aware that the numbers have been log10-transformed from IC50 in nM.

Could you share which log10(IC50) value was measured for `COc1cc2c(cc1OCCCN1CCN(C)CC1)ncc1c(N)nc(-n3ccnc3)cc12` ?
2.54

Could you share which log10(IC50) value was measured for `COc1cc2ncc3c(N)nc(-c4cncc(OC[C@H]5CCCN5)c4)cc3c2cc1OC` ?
2.40

Could you share which log10(IC50) value was measured for `NC[C@H](Cc1cccc(F)c1F)NC(=O)c1cc2c(s1)CCCn1ncc(Br)c1-2` ?
-0.07

Could you share which log10(IC50) value was measured for `CCc1cc(C(=O)N[C@@H]2CNCC[C@H]2c2ccc(C(F)(F)F)cc2)cnc1-c1c(Br)cnn1C` ?
2.41

Could you share which log10(IC50) value was measured for `Cn1ncc(Cl)c1-c1ccc(C(=O)N[C@@H]2CNCC[C@H]2c2cccc3[nH]ccc23)cc1Cl` ?
0.70

Could you share which log10(IC50) value was measured for `NC[C@H](Cc1cccnc1)NC(=O)c1cc2c(s1)CCCn1ncc(Cl)c1-2` ?
0.82

Could you share which log10(IC50) value was measured for `Cn1ncc(Cl)c1-c1ccc(C(=O)N[C@@H]2CNCC[C@H]2c2ccc(F)c(F)c2)cc1-c1ccoc1` ?
1.00

Could you share which log10(IC50) value was measured for `NC1(c2ccc(-c3nc4n(c3-c3ccccc3)COc3ccncc3-4)cc2)CCC1` ?
1.15

Could you share which log10(IC50) value was measured for CC1CCN1C[C@@H](Nc1ncnc2c(C(N)=O)cccc12)c1ccc(F)c(C(F)(F)F)c1 (stereo partly shown) ?
1.04
